# procedureDetails: Intrinsic clearance in human liver microsomes
# Type: ADME, Microsome
Listed next: entries and their corresponding CLint scaled.
The response must be a number in L/h/kg with no trailing unit.

**Q:** Can you look up the measured CLint scaled of CC(C)(C)c1ccc(NC(=O)c2ccc(-c3ncccc3Cl)cc2)cc1 for me?
**A:** 10.1

Next:
**Q:** Can you look up the measured CLint scaled of CC(C)(c1ccc(NC(=O)c2ccc(-c3ncccc3Cl)cc2)cc1)C(F)(F)F for me?
**A:** 2.76

---

# targetOfAssay: Transient receptor potential cation channel subfamily V member 1 (Homo sapiens)
# Sequence (Q8NER1 whole entry): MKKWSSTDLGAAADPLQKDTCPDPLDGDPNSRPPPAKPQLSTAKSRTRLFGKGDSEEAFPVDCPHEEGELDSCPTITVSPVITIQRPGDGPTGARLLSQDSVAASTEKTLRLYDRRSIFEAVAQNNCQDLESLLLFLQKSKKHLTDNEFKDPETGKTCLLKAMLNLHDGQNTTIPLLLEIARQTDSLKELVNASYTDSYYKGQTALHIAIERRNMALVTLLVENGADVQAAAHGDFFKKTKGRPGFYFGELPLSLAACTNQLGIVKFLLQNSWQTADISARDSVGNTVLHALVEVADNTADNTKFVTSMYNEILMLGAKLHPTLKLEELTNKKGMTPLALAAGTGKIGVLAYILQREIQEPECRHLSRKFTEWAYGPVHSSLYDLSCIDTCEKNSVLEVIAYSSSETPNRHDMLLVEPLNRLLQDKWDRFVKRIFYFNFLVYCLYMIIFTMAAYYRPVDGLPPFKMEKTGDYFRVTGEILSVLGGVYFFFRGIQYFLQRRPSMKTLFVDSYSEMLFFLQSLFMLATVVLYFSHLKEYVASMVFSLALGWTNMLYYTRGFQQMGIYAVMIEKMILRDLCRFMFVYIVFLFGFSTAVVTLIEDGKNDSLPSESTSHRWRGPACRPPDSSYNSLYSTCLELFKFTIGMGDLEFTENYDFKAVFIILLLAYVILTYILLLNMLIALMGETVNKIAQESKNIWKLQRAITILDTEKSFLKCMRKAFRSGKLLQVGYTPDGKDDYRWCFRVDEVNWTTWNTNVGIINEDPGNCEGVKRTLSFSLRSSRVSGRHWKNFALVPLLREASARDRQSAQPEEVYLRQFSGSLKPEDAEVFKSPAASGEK
# procedureDetails: Antagonist activity at human TRPV1 receptor
valueType: IC50 (nM)
The response must be a number in nM with no trailing unit.

Reference set, count: 2
**Q:** Request: IC50, test system Transient receptor potential cation channel subfamily V member 1 (Homo sapiens), entry O=C(Nc1ccc(C(F)(F)F)cc1)c1ccc(-c2ncccc2Cl)cc1
**A:** 200

**Q:** Let us now turn to CC(C)(C)c1ccc(NC(=O)c2ccc(-c3ncccc3Cl)cc2)cc1
**A:** 37

As a next step, examine the compound that follows.
**Q:** Request: IC50, test system Transient receptor potential cation channel subfamily V member 1 (Homo sapiens), entry CC(C)(c1ccc(NC(=O)c2ccc(-c3ncccc3Cl)cc2)cc1)C(F)(F)F
**A:** 42
